binding signal values by entry
Molecular target: GST-Nv-NF-kB (Cys allele) (Nematostella vectensis, UniProt E5G601 2-411)
Sequence: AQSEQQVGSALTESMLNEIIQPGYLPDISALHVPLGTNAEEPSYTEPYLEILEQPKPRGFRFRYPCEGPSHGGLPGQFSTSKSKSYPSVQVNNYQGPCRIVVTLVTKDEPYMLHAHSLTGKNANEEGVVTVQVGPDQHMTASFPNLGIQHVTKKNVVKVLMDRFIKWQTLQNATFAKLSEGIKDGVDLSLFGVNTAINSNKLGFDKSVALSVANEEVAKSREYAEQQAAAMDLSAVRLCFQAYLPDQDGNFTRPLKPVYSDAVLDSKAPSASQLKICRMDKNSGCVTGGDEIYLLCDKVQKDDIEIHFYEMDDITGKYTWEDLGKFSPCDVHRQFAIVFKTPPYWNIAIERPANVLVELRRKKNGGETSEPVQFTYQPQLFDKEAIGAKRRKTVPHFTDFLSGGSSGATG
Test: protein-binding microarray (PBM); PBM: ~300 nM protein, 6 mM HEPES pH 7.8, 80 mM KCl, 0.5 mM EDTA, 0.5 mM EGTA, 6% glycerol, 35 ng/ul poly-dIdC, 1% milk, 1 h, room temperature; Ap Aiptasia and Nv Nematostella (sea anemones) / Co Capsaspora / Aq Amphimedon (sponge) / Dm Drosophila / Hu human; RHD is the Rel homology domain; high values mean tight binding
Conditions: dsDNA, one strand shown

Chain sequence | binding signal (z-score)
CCGATTAACATCAGGAAAGACCCTGATGTTAATCGGGTCTTGATTCGCTTGACGCTGCTG | 4.11
CCGATTAACATCATGGGGGGAAATGATGTTAATCGGGTCTTGATTCGCTTGACGCTGCTG | 6.46
CCGATTAACATCAGGGAATTTACTGATGTTAATCGGGTCTTGATTCGCTTGACGCTGCTG | 6.69
CCGATTAACATCAACAAATTCCCTGATGTTAATCGGGTCTTGATTCGCTTGACGCTGCTG | 5.69
CCGATTAACATCAAATATCCCCATGATGTTAATCGGGTCTTGATTCGCTTGACGCTGCTG | 6.83
CCGATTAACATCAGGGAAATCTATGATGTTAATCGGGTCTTGATTCGCTTGACGCTGCTG | 5.31
CCGATTAACATCAAAAGATCCCCTGATGTTAATCGGGTCTTGATTCGCTTGACGCTGCTG | 8.42
CCGATTAACATCACAATTTCCCCTGATGTTAATCGGGTCTTGATTCGCTTGACGCTGCTG | 9.4
CCGATTAACATCAGGATGTTCCCTGATGTTAATCGGGTCTTGATTCGCTTGACGCTGCTG | 1.77
CCGATTAACATCAGGAAGTCCCCTGATGTTAATCGGGTCTTGATTCGCTTGACGCTGCTG | 8.97
